System: Burkholderia cepacia 25416
Test: Checkerboard microplate synergy assay, compound A = HPB
Type: cell-based
Conditions: B. cepacia; combination with HPB
observable: Compound B (Qb): MIC of compound B when used in combination with HPB (ppm)
A number alone suffices; assume ppm.

{"compound": "OCCc1ccccc1 [Phenethyl alcohol]", "measureUnit": "ppm", "quantitativeReadout": 125}
{"compound": "CCCCCCCCCCCCCC[N+](C)(C)C.[Br-] [Tetradecyl trimethyl ammonium bromide]", "measureUnit": "ppm", "quantitativeReadout": 6.3}

Ask: # return recorded Compound B (Qb): MIC of compound B when used in combination with HPB for entry CCCCNC(=O)OCC#CI [lodopropynyl butylcarbamate (IPBC), lodopropynyl butylcarbamate]
Reply: 2

Ask: # return recorded Compound B (Qb): MIC of compound B when used in combination with HPB for entry `OCCCc1ccccc1`
Reply: 156

Ask: # return recorded Compound B (Qb): MIC of compound B when used in combination with HPB for entry CCCCCCCC(=O)NO [Caprylhydroxamic acid]
Reply: 31.3

Ask: # return recorded Compound B (Qb): MIC of compound B when used in combination with HPB for entry COc1ccc(C=O)cc1OC [Veratraldehyde]
Reply: 1000
